src = patent US7858635B2

Tgt: M1 muscarinic receptor (Homo sapiens, UniProt P11229)
Construct: expressed in transfected cells; host or cells: CHO cells (M1-CHO, under zeocin and G418 selection)
Sequence (P11229 1-460): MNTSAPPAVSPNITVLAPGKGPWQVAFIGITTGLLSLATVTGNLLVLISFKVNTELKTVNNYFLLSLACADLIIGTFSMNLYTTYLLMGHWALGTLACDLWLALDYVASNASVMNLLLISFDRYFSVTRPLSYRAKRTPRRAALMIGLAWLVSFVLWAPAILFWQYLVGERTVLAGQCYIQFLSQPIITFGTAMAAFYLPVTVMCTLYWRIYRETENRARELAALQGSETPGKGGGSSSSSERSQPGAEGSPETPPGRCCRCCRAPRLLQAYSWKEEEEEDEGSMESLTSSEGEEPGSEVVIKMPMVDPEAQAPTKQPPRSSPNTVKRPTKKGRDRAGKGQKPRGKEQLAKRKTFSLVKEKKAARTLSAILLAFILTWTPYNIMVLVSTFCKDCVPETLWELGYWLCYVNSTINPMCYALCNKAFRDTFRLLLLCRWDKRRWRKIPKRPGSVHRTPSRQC
Test Summary: Functional mobilization of intracellular calcium (FLIPR, Fluo-3), M1-CHO cells
Type: cell-based
Experimental Setup: compound nos. 1-454; 100% efficacy is the maximum response obtained with the Carbachol control; read-out: M1 Efficacy
Listed below: Emax values for each entry.
Endpoint Label: Emax

INSERT INTO results (molecule, endpoint_label, observed_value) VALUES
  ('Fc1ccc2c(c1)C1(CCN(C[C@H]3C[C@H]4C=C[C@H]3C4)CC1)CO2', 'Emax', '65 to 85%'),
  ('CN(C)C(=O)N1CC2(CCN(C3CCN(C(=O)O[C@H]4CCOC4)CC3)CC2)c2cc(F)ccc21', 'Emax', '< 65%'),
  ('CN(C)C(=O)N1CC2(CCN(CC3CCN(c4nccs4)C3)CC2)c2cc(F)ccc21 (centres unmarked)', 'Emax', '65 to 85%'),
  ('CC(=O)N1CC2(CCN(C3CC4CCC(C3)N4C(=O)OC3CCC3)CC2)c2cc(F)ccc21 (centres unmarked)', 'Emax', '> 85%'),
  ('Clc1ccc2c(c1)C1(CCN(C3CCOCC3)CC1)CO2', 'Emax', '> 85%'),
  ('COC(=O)N1CCC(N2CCC3(CC2)CN(C(=O)N(C)C)c2ccc(F)cc23)CC1', 'Emax', '65 to 85%'),
  ('CCOC(=O)N1CCC(N2CCC3(CC2)CN(C(C)=O)c2ccc(-c4cccc(C)c4)cc23)CC1', 'Emax', '65 to 85%'),
  ('CN(C)C(=O)N1CC2(CCN(C3CCN(C(=O)OCCF)CC3)CC2)c2cc(F)ccc21', 'Emax', '> 85%'),
  ('Cc1ccc2c(c1)C1(CCN(C3CC4CCC3C4)CC1)CN2C(=O)C1CC1 (centres unmarked)', 'Emax', '65 to 85%'),
  ('CCOC(=O)N1CCC(N2CCC3(CC2)CN(C(=O)c2ccccc2OC)c2ccc(F)cc23)CC1', 'Emax', '< 65%'),
  ('CC(=O)NC1CC2(CCN(C3CCCCC3)CC2)c2ccccc21 (centres unmarked)', 'Emax', '< 65%'),
  ('COc1ccccc1N1CCC(N2CCC3(CC2)CN(C(=O)N(C)C)c2ccc(F)cc23)CC1', 'Emax', '65 to 85%'),
  ('CC#CCOC(=O)N1CCC(N2CCC3(CC2)CN(C(C)=O)c2ccc(F)cc23)CC1', 'Emax', '65 to 85%'),
  ('CCOC(=O)N1CCC(N2CCC3(CC2)CN(CC(=O)CC)c2ccc(F)cc23)CC1', 'Emax', '> 85%'),
  ('c1ccc2c(c1)NCC21CCN(C2CCC3CCC2C3)CC1 (centres unmarked)', 'Emax', '65 to 85%'),
  ('CS(=O)(=O)N1CC2(CCN(C3CC4CCC(C3)N4C(=O)O[C@@H]3CCOC3)CC2)c2cc(F)ccc21 (some centres unmarked)', 'Emax', '65 to 85%'),
  ('c1ccc2c(c1)NCC21CCN(CC2CCCCC2)CC1', 'Emax', '65 to 85%'),
  ('O=C(OC1CCCC1)N1C2CCC1CC(N1CCC3(CCc4ccccc43)CC1)C2 (centres unmarked)', 'Emax', '65 to 85%'),
  ('Fc1ccc2c(c1)C1(CCN(C[C@H]3C[C@H]4CC[C@H]3O4)CC1)CN2', 'Emax', '65 to 85%'),
  ('Fc1ccc2c(c1)C1(CCN(C[C@@H]3C[C@H]4CC[C@H]3O4)CC1)CN2', 'Emax', '< 65%'),
  ('CCOC(=O)N1CCC(N2CCC3(CC2)C(=O)Nc2ccccc23)CC1', 'Emax', '65 to 85%'),
  ('CC(C)OC(=O)N1C2CCC1CC(N1CCC3(CC1)CN(C(=O)C1CC1)c1ccc(F)cc13)C2 (centres unmarked)', 'Emax', '< 65%'),
  ('CC(=O)N[C@H]1CC2(CCN(C3CCCCCCC3)CC2)c2ccccc21', 'Emax', '< 65%'),
  ('Fc1ccc2c(c1)C1(CCN(C3CCC4CCC3C4)CC1)CN2 (centres unmarked)', 'Emax', '65 to 85%'),
  ('CCCCC(=O)N1CC2(CCN(C3CCN(C(=O)OCC)CC3)CC2)c2cc(F)ccc21', 'Emax', '65 to 85%'),
  ('CCOC(=O)N1CCC(N2CCC3(CC2)CN(C(C)=O)c2ccc(OC(F)(F)F)cc23)CC1', 'Emax', '< 65%');

----------
Tgt: M1 muscarinic receptor (Homo sapiens, UniProt P11229)
Construct: expressed in transfected cells; host or cells: CHO cells (M1-CHO, under zeocin and G418 selection)
Test Summary: Functional mobilization of intracellular calcium (FLIPR, Fluo-3), M1-CHO cells
Type: cell-based
Experimental Setup: compound nos. 1-454; 100% efficacy is the maximum response obtained with the Carbachol control; read-out: M1 Efficacy
Endpoint Label: Emax

INSERT INTO assay_data (molecule, observed_value) VALUES
  ('Fc1ccc2c(c1)C1(CCN(C3CC4CCC(C4)C3)CC1)CN2 (stereo not drawn)', '65 to 85%'),
  ('Clc1ccc2c(c1)C1(CCO2)CCN(CC2CC3C=C[C@H]2C3)CC1 (stereo in doubt)', '< 65%'),
  ('CCCOC(=O)N1C2CCC1CC(N1CCC3(CC1)CN(C(=O)OCCOC)c1ccc(F)cc13)C2 (stereo not drawn)', '< 65%');

----------
Tgt: M4 muscarinic receptor (Homo sapiens)
Construct: expressed in transfected cells; host or cells: CHO cells (M4-CHO, under puromycin, zeocin and blasticidin selection)
Sequence (P08173 whole entry): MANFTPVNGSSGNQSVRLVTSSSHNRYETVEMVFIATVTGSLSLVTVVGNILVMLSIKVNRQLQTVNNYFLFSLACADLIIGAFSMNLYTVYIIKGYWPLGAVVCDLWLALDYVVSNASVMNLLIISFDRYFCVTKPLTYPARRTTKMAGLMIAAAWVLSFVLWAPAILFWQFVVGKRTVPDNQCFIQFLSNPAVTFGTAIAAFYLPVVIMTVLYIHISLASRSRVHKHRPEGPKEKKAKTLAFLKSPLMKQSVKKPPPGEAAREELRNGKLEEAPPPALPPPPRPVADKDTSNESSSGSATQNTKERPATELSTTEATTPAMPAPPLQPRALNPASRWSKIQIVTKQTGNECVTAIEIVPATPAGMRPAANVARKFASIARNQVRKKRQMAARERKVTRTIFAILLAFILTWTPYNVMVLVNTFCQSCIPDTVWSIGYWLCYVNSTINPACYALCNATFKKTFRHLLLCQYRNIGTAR
Test Summary: Functional mobilization of intracellular calcium (FLIPR, Fluo-3), M4-CHO cells
Assay type: cell-based
Experimental Setup: compound nos. 1-454; 100% efficacy is the maximum response obtained with the Carbachol control; read-out: M4 Efficacy
Endpoint Label: Emax

INSERT INTO measurements (compound, observed_value) VALUES
  ('CN(C)C(=O)N1CC2(CCN(C3CCN(c4nccs4)CC3)CC2)c2cc(F)ccc21', '55 to 70%'),
  ('CC(=O)N1CC2(CCN(CC3=CCCCC3)CC2)c2cc(F)ccc21', '> 70%'),
  ('CCOC(=O)N1C2CCC1CC(N1CCC3(CC1)CN(C(=O)c1cc(C)n(C)n1)c1ccc(F)cc13)C2 (stereo not drawn)', '> 70%');

----------
Tgt: M4 muscarinic receptor (Homo sapiens)
Construct: expressed in transfected cells; host or cells: CHO cells (M4-CHO, under puromycin, zeocin and blasticidin selection)
Test Summary: Functional mobilization of intracellular calcium (FLIPR, Fluo-3), M4-CHO cells
Assay type: cell-based
Experimental Setup: compound nos. 1-454; 100% efficacy is the maximum response obtained with the Carbachol control; read-out: M4 Efficacy
Entries and their Emax
Endpoint Label: Emax

INSERT INTO assay_data (compound, endpoint_label, observed_value) VALUES
  ('COC(=O)N1C2CCC1CC(N1CCC3(CC1)COc1ccc(F)cc13)C2 (stereo not shown)', 'Emax', '> 70%'),
  ('C1=C[C@H]2C[C@H]1C[C@H]2CN1CCC2(CCc3ccccc32)CC1', 'Emax', '< 55%'),
  ('CCOC(=O)N1CCC(N2CCC3(CC2)CN(C(=O)c2ccc4c(c2)OCO4)c2ccc(F)cc23)CC1', 'Emax', '< 55%'),
  ('CCOC(=O)N1CCC(CN2CCC3(CC2)CN(C(C)=O)c2ccc(F)cc23)CC1', 'Emax', '55 to 70%'),
  ('Fc1ccc2c(c1)C1(CCN(C3CC4CCC(C4)C3)CC1)CN2 (stereo not shown)', 'Emax', '55 to 70%'),
  ('CCOC(=O)N1C2CCC1CC(N1CCC3(CC1)CN(C(=O)O[C@@H]1CCOC1)c1ccc(F)cc13)C2 (stereo partly shown)', 'Emax', '< 55%'),
  ('CCOC(=O)N1C2CCC1CC(N1CCC3(CC1)CN(C(=O)OCCOC)c1ccc(F)cc13)C2 (stereo not shown)', 'Emax', '< 55%'),
  ('CN(C)C(=O)N1CC2(CCN(C3CCN(c4ncccn4)CC3)CC2)c2cc(F)ccc21', 'Emax', '55 to 70%'),
  ('CCOC(=O)N1CCC(N2CCC3(CC2)CN(C(C)=O)c2ccc(-c4ccccc4F)cc23)CC1', 'Emax', '> 70%'),
  ('CC#CCOC(=O)N1CC2(CCN(C3CCN(C(=O)OCC)CC3)CC2)c2cc(F)ccc21', 'Emax', '< 55%'),
  ('CC(C)OC(=O)N1C2CCC1CC(N1CCC3(CC1)CN(C(=O)C1CC1)c1ccc(F)cc13)C2 (stereo not shown)', 'Emax', '< 55%'),
  ('CCOC(=O)N1CCC(N2CCC3(CC2)CN(C(=O)C2CCC2)c2ccc(F)cc23)CC1', 'Emax', '55 to 70%'),
  ('CCOC(=O)N1CCC(N2CCC3(CC2)CN(C(=O)c2ccccc2C)c2ccc(F)cc23)CC1', 'Emax', '55 to 70%');
